Assign IC50 to each entry below.
test system: A375 multi-cell spheroids with HUVEC/MSC, viability; test: Anticancer human tumor A375 cell line growth inhibition [GQUAD]; details: curve of first compound; second compound 0.1 µM;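 note: spheroids exposed to compounds for seven days before readout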

## Task Complete the entry with IC50 for CC1COCCN1c1cc(-c2ccnn2C)c2ccnc(-c3ccn[nH]3)c2n1 (stereo not drawn) + Cc1cnc(CNC(=O)c2c(=O)c3ccc(N4CCCN(C)CC4)nc3n3c2sc2ccccc23)cn1
## Result 74.3 nM

## Task Complete the entry with IC50 for CCc1c2c(nc3ccc(O)cc13)-c1cc3c(c(=O)n1C2)COC(=O)[C@]3(O)CC + Cc1[nH]c2ccc(F)cc2c1-c1nc2c3cccnc3c3ncccc3c2[nH]1
## Result < 0.999 nM

## Task Complete the entry with IC50 for Cc1cccc(N(C)C(=O)C2C(O)CCN2c2nc(C)cc(C(F)(F)F)c2C#N)c1 (stereo not drawn) + Cc1[nH]c2ccc(F)cc2c1-c1nc2c3cccnc3c3ncccc3c2[nH]1
## Result > 10000 nM

* * *

system: A375 multi-cell spheroids with HUVEC/MSC, viability; assay: Anticancer human tumor A375 cell line growth inhibition [GQUAD]; conditions: second compound 0.316 µM; first compound 0.1 µM; stronger effect = lower value;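 note: spheroids exposed to compounds for seven days before readout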
Assign viability, T/C to each entry below.

## Task Complete the entry with viability, T/C for C=CC(=O)N1CCN(c2nc(=O)n(-c3c(C)ccnc3C(C)C)c3nc(-c4c(O)cccc4F)c(F)cc23)C(C)C1 (configuration not stated) + CN(C)c1ccc(Nc2c3ccc(NC(=O)CCN4CCCC4)cc3nc3cc(NC(=O)CCN4CCCC4)ccc23)cc1
## Result 94.7%

## Task Complete the entry with viability, T/C for O=C(NO)c1cnc(N2CCN(S(=O)(=O)c3ccc4ccccc4c3)CC2)nc1 + Cc1cnc(CNC(=O)c2c(=O)c3ccc(N4CCCN(C)CC4)nc3n3c2sc2ccccc23)cn1
## Result 53.2%

## Task Complete the entry with viability, T/C for CC1COCCN1c1cc(C2(O)CC3CCC(C2)O3)c2cnn(-c3ccn[nH]3)c2n1 (configuration not stated) + CN(C)c1ccc(Nc2c3ccc(NC(=O)CCN4CCCC4)cc3nc3cc(NC(=O)CCN4CCCC4)ccc23)cc1
## Result 70.7%

## Task Complete the entry with viability, T/C for CC1COCCN1c1cc(C2(O)CC3CCC(C2)O3)c2cnn(-c3ccn[nH]3)c2n1 (configuration not stated) + Cc1cnc(CNC(=O)c2c(=O)c3ccc(N4CCCN(C)CC4)nc3n3c2sc2ccccc23)cn1
## Result 29.7%

## Task Complete the entry with viability, T/C for CC(C)(O)C1CCC(Nc2ccc3ncc(-c4cccc(C(F)(F)F)c4)n3n2)CC1 (configuration not stated) + Cc1[nH]c2ccc(F)cc2c1-c1nc2c3cccnc3c3ncccc3c2[nH]1
## Result 102%

## Task Complete the entry with viability, T/C for Cc1cccc(N(C)C(=O)C2C(O)CCN2c2nc(C)cc(C(F)(F)F)c2C#N)c1 (configuration not stated) + Cc1cnc(CNC(=O)c2c(=O)c3ccc(N4CCCN(C)CC4)nc3n3c2sc2ccccc23)cn1
## Result 52%

## Task Complete the entry with viability, T/C for COc1cc(C2c3cc4c(cc3C(OC3OC5COC(C)OC5C(O)C3O)C3COC(=O)C23)OCO4)cc(OC)c1O (configuration not stated) + Cc1cnc(CNC(=O)c2c(=O)c3ccc(N4CCCN(C)CC4)nc3n3c2sc2ccccc23)cn1
## Result 50.2%

## Task Complete the entry with viability, T/C for COc1ccc([C@@H](O)c2cc(-c3ncnc4cc(N5CCOCC5)ccc34)c(F)cc2Cl)nn1 + Cc1[nH]c2ccc(F)cc2c1-c1nc2c3cccnc3c3ncccc3c2[nH]1
## Result 112%

## Task Complete the entry with viability, T/C for C=CCn1c(=O)c2cnc(Nc3ccc(N4CCN(C)CC4)cc3)nc2n1-c1cccc(C(C)(C)O)n1 + Cc1cnc(CNC(=O)c2c(=O)c3ccc(N4CCCN(C)CC4)nc3n3c2sc2ccccc23)cn1
## Result 50.6%

## Task Complete the entry with viability, T/C for CCCS(=O)(=O)Nc1ccc(F)c(C(=O)c2c[nH]c3ncc(-c4ccc(Cl)cc4)cc23)c1F + CN(C)c1ccc(Nc2c3ccc(NC(=O)CCN4CCCC4)cc3nc3cc(NC(=O)CCN4CCCC4)ccc23)cc1
## Result 14.7%

## Task Complete the entry with viability, T/C for COc1ncnc(C2CC2)c1-c1ncc2cnn(Cc3ccc(-c4nc(C(F)(F)F)cn4C(C)C)cc3)c2n1 + Cc1[nH]c2ccc(F)cc2c1-c1nc2c3cccnc3c3ncccc3c2[nH]1
## Result 104%

## Task Complete the entry with viability, T/C for CC1COCCN1c1cc(-c2ccnn2C)c2ccnc(-c3ccn[nH]3)c2n1 (configuration not stated) + Cc1cnc(CNC(=O)c2c(=O)c3ccc(N4CCCN(C)CC4)nc3n3c2sc2ccccc23)cn1
## Result 33.8%

## Task Complete the entry with viability, T/C for Nc1ccn(C2OC(CO)C(O)C2(F)F)c(=O)n1 (configuration not stated) + Cc1[nH]c2ccc(F)cc2c1-c1nc2c3cccnc3c3ncccc3c2[nH]1
## Result 12.7%

## Task Complete the entry with viability, T/C for Cc1cccc(N(C)C(=O)C2C(O)CCN2c2nc(C)cc(C(F)(F)F)c2C#N)c1 (configuration not stated) + Cc1[nH]c2ccc(F)cc2c1-c1nc2c3cccnc3c3ncccc3c2[nH]1
## Result 100%

## Task Complete the entry with viability, T/C for COc1ncnc(C2CC2)c1-c1ncc2cnn(Cc3ccc(-c4nc(C(F)(F)F)cn4C(C)C)cc3)c2n1 + Cc1cnc(CNC(=O)c2c(=O)c3ccc(N4CCCN(C)CC4)nc3n3c2sc2ccccc23)cn1
## Result 43.6%

## Task Complete the entry with viability, T/C for CCCS(=O)(=O)Nc1ccc(F)c(C(=O)c2c[nH]c3ncc(-c4ccc(Cl)cc4)cc23)c1F + Cc1[nH]c2ccc(F)cc2c1-c1nc2c3cccnc3c3ncccc3c2[nH]1
## Result 13.7%

## Task Complete the entry with viability, T/C for CC1COCCN1c1cc(-c2ccnn2C)c2ccnc(-c3ccn[nH]3)c2n1 (configuration not stated) + Cc1[nH]c2ccc(F)cc2c1-c1nc2c3cccnc3c3ncccc3c2[nH]1
## Result 128%

## Task Complete the entry with viability, T/C for CC(C)n1c(=O)n(C)c2cnc3cc(F)c(-c4ccc(OCCCN5CCCCC5)nc4)cc3c21 + Cc1[nH]c2ccc(F)cc2c1-c1nc2c3cccnc3c3ncccc3c2[nH]1
## Result 91.8%

## Task Complete the entry with viability, T/C for CC(C)(O)C1CCC(Nc2ccc3ncc(-c4cccc(C(F)(F)F)c4)n3n2)CC1 (configuration not stated) + Cc1cnc(CNC(=O)c2c(=O)c3ccc(N4CCCN(C)CC4)nc3n3c2sc2ccccc23)cn1
## Result 53.4%

## Task Complete the entry with viability, T/C for CC(C)n1c(=O)n(C)c2cnc3cc(F)c(-c4ccc(OCCCN5CCCCC5)nc4)cc3c21 + CN(C)c1ccc(Nc2c3ccc(NC(=O)CCN4CCCC4)cc3nc3cc(NC(=O)CCN4CCCC4)ccc23)cc1
## Result 97.1%

## Task Complete the entry with viability, T/C for COc1cc(C2c3cc4c(cc3C(OC3OC5COC(C)OC5C(O)C3O)C3COC(=O)C23)OCO4)cc(OC)c1O (configuration not stated) + Cc1[nH]c2ccc(F)cc2c1-c1nc2c3cccnc3c3ncccc3c2[nH]1
## Result 156%

## Task Complete the entry with viability, T/C for O=c1[nH]cc(F)c(=O)[nH]1 + CN(C)c1ccc(Nc2c3ccc(NC(=O)CCN4CCCC4)cc3nc3cc(NC(=O)CCN4CCCC4)ccc23)cc1
## Result 102%

* * *

system: A375 multi-cell spheroids with HUVEC/MSC, viability; test: Anticancer human tumor A375 cell line growth inhibition [GQUAD]; settings: second compound 0.0316 µM; first compound 0.00316 µM; stronger effect = lower value;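 note: spheroids exposed to compounds for seven days before readout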
PROPERTY: viability, T/C (%)
The reply should contain only the number, in %.

## Task Complete the entry with viability, T/C for Cc1[nH]c2ccccc2c1CCNCc1ccc(/C=C/C(=O)NO)cc1 + Cc1[nH]c2ccc(F)cc2c1-c1nc2c3cccnc3c3ncccc3c2[nH]1
## Result 108

## Task Complete the entry with viability, T/C for Cn1ncnc1[C@H]1c2n[nH]c(=O)c3cc(F)cc(c23)N[C@@H]1c1ccc(F)cc1 + Cc1[nH]c2ccc(F)cc2c1-c1nc2c3cccnc3c3ncccc3c2[nH]1
## Result 98.1

## Task Complete the entry with viability, T/C for CCc1c2c(nc3ccc(O)cc13)-c1cc3c(c(=O)n1C2)COC(=O)[C@]3(O)CC + CN(C)c1ccc(Nc2c3ccc(NC(=O)CCN4CCCC4)cc3nc3cc(NC(=O)CCN4CCCC4)ccc23)cc1
## Result 16.1

## Task Complete the entry with viability, T/C for CC[C@@]1(O)C(=O)OCc2c1cc1n(c2=O)Cc2cc3c(CN(C)C)c(O)ccc3nc2-1 + Cc1cnc(CNC(=O)c2c(=O)c3ccc(N4CCCN(C)CC4)nc3n3c2sc2ccccc23)cn1
## Result 103

## Task Complete the entry with viability, T/C for Cn1ncnc1[C@H]1c2n[nH]c(=O)c3cc(F)cc(c23)N[C@@H]1c1ccc(F)cc1 + Cc1cnc(CNC(=O)c2c(=O)c3ccc(N4CCCN(C)CC4)nc3n3c2sc2ccccc23)cn1
## Result 98.9

## Task Complete the entry with viability, T/C for Cc1[nH]c2ccccc2c1CCNCc1ccc(/C=C/C(=O)NO)cc1 + Cc1cnc(CNC(=O)c2c(=O)c3ccc(N4CCCN(C)CC4)nc3n3c2sc2ccccc23)cn1
## Result 103

# credit: PubChem BioAssay AID2060485
